# assay-system: recombinant human NK3 receptor (Homo sapiens)
# test-details: [3H]SR142801 competition binding assay
# measurement-setup: [3H]SR142801, membranes from HEK293 cells transiently expressing hNK3; read-out: Data (hNK-3 receptor affinity)
recorded-endpoint: Ki (nM)

(A) COc1ccccc1N1CCN(C(=O)[C@@H]2C[C@H](NCc3ccc(F)cc3F)CN2Cc2ccccc2)CC1 [Example 12]
(B) N#Cc1ccccc1N1CCN(C(=O)[C@@H]2C[C@H](NCc3ccc(F)cc3F)CN2Cc2ccccc2)CC1 [Example 1]
(C) COc1cc(CN[C@H]2C[C@@H](C(=O)N3CCN(c4ccccc4C#N)CC3)N(Cc3ccccc3)C2)cc(OC)c1 [Example 34]
(D) O=C([C@@H]1C[C@H](NCc2ccc(F)cc2F)CN1Cc1ccccc1)N1CCN(c2ccccc2)CC1 [Example 7]
Reorder: Ki, max to min. In your reply, arrange the labels in the requested order. D, C, A, B

----------
# assay-system: recombinant human NK3 receptor (Homo sapiens)
# Sequence (P29371 1-465): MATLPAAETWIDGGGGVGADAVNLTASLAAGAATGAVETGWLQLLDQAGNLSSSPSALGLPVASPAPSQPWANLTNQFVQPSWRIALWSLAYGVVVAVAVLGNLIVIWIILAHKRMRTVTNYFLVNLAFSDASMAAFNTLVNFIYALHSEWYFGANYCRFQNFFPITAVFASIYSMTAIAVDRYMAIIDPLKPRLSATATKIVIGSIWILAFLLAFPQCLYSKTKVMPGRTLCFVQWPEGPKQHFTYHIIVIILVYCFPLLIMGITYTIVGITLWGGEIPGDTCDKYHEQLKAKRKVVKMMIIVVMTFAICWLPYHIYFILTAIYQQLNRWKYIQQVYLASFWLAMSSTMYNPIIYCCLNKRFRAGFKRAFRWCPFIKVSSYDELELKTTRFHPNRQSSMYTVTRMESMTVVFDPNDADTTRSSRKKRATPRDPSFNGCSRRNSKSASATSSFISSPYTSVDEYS
# test-details: [3H]SR142801 competition binding assay
# measurement-setup: [3H]SR142801, membranes from HEK293 cells transiently expressing hNK3; read-out: Data (hNK-3 receptor affinity)
pKi: −log10 of the molar value.
recorded-endpoint: pKi

Look over these answered cases.
CN(Cc1cc(C(F)(F)F)cc(C(F)(F)F)c1)[C@H]1C[C@@H](C(=O)N2CCN(c3ccccc3C#N)CC2)N(Cc2ccccc2)C1
7.19
O=C([C@@H]1C[C@H](NCc2ccc(F)cc2F)CN1Cc1ccccc1)N1CCN(c2ccc(F)cc2)CC1
7.19
COc1cc2c(cc1OC)CN(C(=O)[C@@H]1C[C@H](NCc3ccc(F)cc3F)CN1Cc1ccccc1)CC2
7.40
CN(Cc1cc(C(F)(F)F)cc(C(F)(F)F)c1)[C@H]1C[C@@H](C(=O)N2CCN(c3cccc(C(F)(F)F)c3)CC2)N(Cc2cccc(Cl)c2)C1
7.39

(1) N#Cc1ccccc1N1CCN(C(=O)[C@@H]2C[C@@H](NCc3ccc(F)cc3F)CN2Cc2ccccc2)CC1
(2) N#Cc1ccccc1N1CCN(C(=O)[C@@H]2C[C@H](NCc3ccc(F)c(Cl)c3)CN2Cc2ccccc2)CC1
Which record shows the lower pKi: the first, 1 , or the second, 2 ? Lab note: record the label of whichever item you select. 1
(1: 7.01, 2: 7.55)
